Structures can show the parent of a compound that is named as a salt.
What melting point was measured for each of the following?

Q: Would you mind telling me what melting point value was observed for Clc1ccc2c(c1)C(CCN1CCN(c3cccc4c3OCCO4)CC1)CN2.O=C(O)C(=O)O (centres unmarked) ?
Ans: 153 to 157 °C

Q: What about this compound? O=C(O)C(=O)O.c1ccc(CN2CC(CCN3CCN(c4cccc5c4OCCO5)CC3)c3ccccc32)cc1 (centres unmarked)
Ans: 158 to 165 °C

Q: What about this compound? COc1ccc2[nH]cc(CCN3CCN(c4cccc5c4OCCO5)CC3)c2c1 (as salt: oxalate) [Compound 1i]
Ans: 189 to 196 °C

Q: What about this compound? Clc1ccc2c(CCN3CC=C(c4cccc5c4OCC5)CC3)c[nH]c2c1.O=C(O)C(=O)O [Compound 1x]
Ans: 211 to 214 °C

Q: What about this compound? Brc1ccc2[nH]cc(CCN3CC=C(c4cccc5ccoc45)CC3)c2c1.O=C(O)C(=O)O
Ans: 185 to 194 °C

Q: What about this compound? Fc1ccc2c(ccn2CCN2CCN(c3cccc4c3OCCO4)CC2)c1.O=C(O)C(=O)O
Ans: 230 to 231 °C

Q: What about this compound? Fc1ccc2[nH]cc(CCN3CCN(c4cccc5c4OCCO5)CC3)c2c1.O=C(O)C(=O)O [Compound 1h]
Ans: 224 to 226 °C

Q: What about this compound? C#CCn1cc(CCN2CCN(c3cccc4c3OCCO4)CC2)c2ccccc21.O=C(O)C(=O)O
Ans: 168 to 172 °C
